The origin of these recorded values is the supplement of paper PMC10702517.

- Protocol details: chemical recovery into PDMS from spiked human plasma; higher = better extraction
- Condition info: pooled human plasma; extraction method: PES with PDMS; equilibration time (d): 1
Values of chemical recovery into PDMS greater than or equal to 20% map to Yes; values below map to No.

Reference set, count: 5
CC(COc1ccc(Oc2ccccc2)cc1)Oc1ccccn1 (stereo unspecified) [Pyriproxyfen]: Yes
O=C(Nc1ccccc1-c1ccc(Cl)cc1)c1cccnc1Cl [Boscalid]: Yes
CCNc1nc(NC(C)C)nc(SC)n1 [Ametryn]: No
NC(=O)/N=C1\SCCN1Cc1ccc(Cl)nc1 [Thiacloprid amide]: No
O=c1[nH]c2ccccc2s1 [2-Hydroxybenzothiazole]: No

Identify whether the reported chemical recovery into PDMS of the following molecule is 20% or greater: N#C/N=C1\SCCN1Cc1ccc(Cl)nc1 [Thiacloprid]
No
